# key: entry, value: EC50 CreLuc hNPY2R 100% hP
Biological target: T1, human neuropeptide Y2 receptor (human, UniProt P49146 1-381)
T1 sequence (looked up): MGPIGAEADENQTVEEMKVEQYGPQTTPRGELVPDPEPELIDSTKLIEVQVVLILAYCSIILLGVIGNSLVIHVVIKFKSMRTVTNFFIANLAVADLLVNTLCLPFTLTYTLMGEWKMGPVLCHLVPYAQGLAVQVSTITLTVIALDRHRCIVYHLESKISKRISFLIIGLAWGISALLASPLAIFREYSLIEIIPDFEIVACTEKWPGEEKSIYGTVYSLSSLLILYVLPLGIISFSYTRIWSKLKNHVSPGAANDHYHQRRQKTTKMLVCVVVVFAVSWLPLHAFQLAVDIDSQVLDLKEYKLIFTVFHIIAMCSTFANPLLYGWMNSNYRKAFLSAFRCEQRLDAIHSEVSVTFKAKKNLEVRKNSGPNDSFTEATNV
Test: cell-based or functional assay
Starred links: 1 amine or outer side, 2 acyl side, 3 side chain; linkers in the order of their positions; H or OH if unused. Non-standard residues stand in square brackets, D forms with d. Groups on a side chain read outwards from the residue. No end group written: not given here. *: point of attachment. C18 diacid = O=C(O)CCCCCCCCCCCCCCCCC(=O)*; γGlu = O=C(O)[C@H](CCC(=O)[*:2])N[*:1]; εLys = N[C@@H](CCCCN[*:1])C(=O)[*:2]; AEEA = NCCOCCOCC(=O)O; Aib = CC(C)(N)C(=O)O
Field: numeric (µM). Do not append units.

Some entries whose results are on file:
binder="YXEGTFTSDYSILLEKQAQXAFVEWLIKGGPSSGASLRHYYNWLTRQRY (Aib at 2, 20; K28 side chain: C20DA-gGlu-Glu-gGlu-gGlu-gGlu-gGlu-eLys; C-terminal NH2) [Compound 104]" value_reported=0.0507
binder="Y[Aib]EGTFTSDYSI[Aib]LEKQAQ[Aib]AFVEWLIK([εLys-γGlu-γGlu-γGlu-γGlu-γGlu-C18 diacid])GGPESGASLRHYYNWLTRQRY-NH2 [Compound 152]" value_reported=0.0391

Lookup: Input Y[Aib]EGTFTSDYSI[Aib]LEKQAQ[Aib]AFVQWLIK([AEEA-AEEA-γGlu-γGlu-γGlu-C18 diacid])GGPEEGASLRHYYNWLTRQRY-NH2 [Compound 144] , output reported EC50 CreLuc hNPY2R 100% hP.
Found: 0.0487

Reference source for all entries: patent US20240247080A1
